These data points were gathered from patent US20160376333A1.

- system-name: T1, Epstein-Barr virus BHRF1 a.a. 1-161 with C-terminal avi-6his tag (Epstein-Barr virus)
- T1 construct: also called EBV BHRF1; BHRF1-biotin
- T1 chain: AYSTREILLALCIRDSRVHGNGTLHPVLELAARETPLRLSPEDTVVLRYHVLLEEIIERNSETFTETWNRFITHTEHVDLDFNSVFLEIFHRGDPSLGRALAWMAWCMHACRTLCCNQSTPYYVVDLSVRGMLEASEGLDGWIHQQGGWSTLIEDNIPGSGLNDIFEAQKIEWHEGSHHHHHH
- method-description: yeast display library, FACS sort at 100 nM BHRF1, deep sequencing
recorded-metric: Log2 enrichment ratio (log2)
Numeric only. Scale: log2

Give Log2 enrichment ratio for the following binder: Index 06 (designed binder) GRSANDILKQFLEMLQEALRKFDEKKNKIEDEWKQFDLSTQRREEATHKWIAAALMAIGDMFNALRWALEEALKAKLKNLQSSDDLKEAIERMMKLMLEKAQEIQEKGRELADKIEQG
-2.35

Output Log2 enrichment ratio of Index 42 (designed binder) GQQEEQFIEDFKKEVLRAADDAKDDMEKRAEEFLKKDGDDNEKKRKILKWIADALEAIGDLFNAAQEAKRRAELYFKLGLLKKERKEEAEEEAEKAKEEASKKLHKAAREARIKMEKG
-3.63

Specify reported Log2 enrichment ratio for the binder shown: Index 14 (designed binder) GLSADDLFDYAEDRMREGWKDFEELAGEAEKKAKEHTLSDQERREATEKWIAAALELIGDAFNAIRWAEELGKLYVKLNLDDKQKVEELKKKLEERAKEEAQKARKRGDKLEDLADSG
-2.91

Give reported Log2 enrichment ratio value for Index 44 (designed binder) GESGEWILEKTREKIERAIRDAEKKLRLIILLIRLFHPGDDLRALFAAIWIAAELELIGDIFNEKQDAEEKFKELLKKNQFRWEELWRKWLILEWIFQKARRKSKELAERAKKAFDFG
-3.29
